- experimental-system: Farnesyltransferase (Saccharomyces cerevisiae S288c, UniProt P22007+P29703)
- Sequence (P29703 whole entry): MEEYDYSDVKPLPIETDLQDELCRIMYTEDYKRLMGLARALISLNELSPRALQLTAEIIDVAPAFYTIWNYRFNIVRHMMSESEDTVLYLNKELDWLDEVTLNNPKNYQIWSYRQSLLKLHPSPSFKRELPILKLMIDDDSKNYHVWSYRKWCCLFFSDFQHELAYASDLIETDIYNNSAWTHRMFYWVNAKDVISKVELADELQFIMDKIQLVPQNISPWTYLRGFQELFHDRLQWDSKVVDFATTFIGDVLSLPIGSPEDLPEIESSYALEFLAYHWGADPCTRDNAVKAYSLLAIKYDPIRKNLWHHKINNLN
- Sequence (P22007 whole entry): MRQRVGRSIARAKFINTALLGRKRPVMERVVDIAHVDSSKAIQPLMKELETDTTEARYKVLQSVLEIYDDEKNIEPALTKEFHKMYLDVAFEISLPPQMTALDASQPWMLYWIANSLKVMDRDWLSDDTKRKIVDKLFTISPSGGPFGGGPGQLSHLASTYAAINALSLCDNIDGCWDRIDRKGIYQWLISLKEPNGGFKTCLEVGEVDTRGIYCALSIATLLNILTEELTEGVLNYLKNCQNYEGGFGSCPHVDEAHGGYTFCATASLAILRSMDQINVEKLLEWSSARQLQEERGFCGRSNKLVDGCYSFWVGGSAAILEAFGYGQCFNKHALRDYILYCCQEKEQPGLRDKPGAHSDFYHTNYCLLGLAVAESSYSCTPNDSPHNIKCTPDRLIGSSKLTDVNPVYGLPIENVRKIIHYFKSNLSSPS
- test-name: Inhibitory activity against farnesyltransferase.
reported-metric: pIC50
In textbook form, pIC50 equals minus log to base ten of the concentration in mol/L.

Examples from the recorded data:
{"structure-notation": "N[C@@H](CS)C(=O)Nc1ccc(NC(=O)Cc2ccc([N+](=O)[O-])cc2)c(C(=O)c2ccccc2)c1", "pIC50": 6.94}
{"structure-notation": "N[C@@H](CS)C(=O)Nc1ccc(NC(=O)Cc2cc(Cl)ccc2Cl)c(C(=O)c2ccccc2)c1", "pIC50": 5.62}
{"structure-notation": "N[C@@H](CS)C(=O)Nc1ccc(NC(=O)c2ccccc2)c(C(=O)c2ccccc2)c1", "pIC50": 5.32}

Consider the additional molecule presented here.
Sure, the documented pIC50 for `Cc1ccc(CS(=O)(=O)Nc2ccc(NC(=O)[C@@H](N)CS)cc2C(=O)c2ccccc2)cc1` is 7.00
